System: MCF-7 cells
Test: MCF-7 GI50 determination (crystal violet growth inhibition)
Format: cell-based, human
Conditions: Homo sapiens, MCF7, 96 h, read-out: MCF-7 Cells GI50 (nM)
Catalogue of GI50 values

query-smiles	assay-result
CC[C@]1(O)C[C@H]2CN(CCc3c([nH]c4ccc(C#Cc5ccccc5)cc34)[C@@](C(=O)OC)(c3cc4c(cc3OC)N(C)[C@H]3[C@@](O)(C(=O)OC)[C@H](OC(C)=O)[C@]5(CC)C=CCN6CC[C@]43[C@@H]65)C2)C1	800 nM
CC[C@]1(O)C[C@H]2CN(CCc3c([nH]c4ccc(N(C)c5ccccc5)cc34)[C@@](C(=O)OC)(c3cc4c(cc3OC)N(C)[C@H]3[C@@](O)(C(=O)OC)[C@H](OC(C)=O)[C@]5(CC)C=CCN6CC[C@]43[C@@H]65)C2)C1	> 1000 nM
CC[C@]1(O)C[C@H]2CN(CCc3c([nH]c4ccc(SCCNC(C)=O)cc34)[C@@](C(=O)OC)(c3cc4c(cc3OC)N(C)[C@H]3[C@@](O)(C(=O)OC)[C@H](OC(C)=O)[C@]5(CC)C=CCN6CC[C@]43[C@@H]65)C2)C1	300 nM

# next compound below
Input line: Give its GI50 value. Item: CC[C@]1(O)C[C@H]2CN(CCc3c([nH]c4ccc(N5CCOCC5)cc34)[C@@](C(=O)OC)(c3cc4c(cc3OC)N(C)[C@H]3[C@@](O)(C(=O)OC)[C@H](OC(C)=O)[C@]5(CC)C=CCN6CC[C@]43[C@@H]65)C2)C1
Output line: 50 nM

====

Test system: MCF-7 cells
Test: MCF-7 GI50 determination (crystal violet growth inhibition)
Format: cell-based, human
Settings: Homo sapiens, MCF7, 96 h, read-out: MCF-7 Cells GI50 (nM)
measurement-label: GI50 (nM)
Quick note: give the figure in nM, leave out the unit.

Some entries whose results are on file:
query-smiles	tgt	measure-unit	GI50
CC[C@]1(O)C[C@H]2CN(CCc3c([nH]c4ccc(-c5ccsc5)cc34)[C@@](C(=O)OC)(c3cc4c(cc3OC)N(C)[C@H]3[C@@](O)(C(=O)OC)[C@H](OC(C)=O)[C@]5(CC)C=CCN6CC[C@]43[C@@H]65)C2)C1	MCF-7 cells	nM	300
CC[C@]1(O)C[C@H]2CN(CCc3c([nH]c4ccc(-c5nccs5)cc34)[C@@](C(=O)OC)(c3cc4c(cc3OC)N(C)[C@H]3[C@@](O)(C(=O)OC)[C@H](OC(C)=O)[C@]5(CC)C=CCN6CC[C@]43[C@@H]65)C2)C1	MCF-7 cells	nM	100
CC[C@]1(O)C[C@H]2CN(CCc3c([nH]c4ccc(/C=C/C(=O)OC(C)(C)C)cc34)[C@@](C(=O)OC)(c3cc4c(cc3OC)N(C)[C@H]3[C@@](O)(C(=O)OC)[C@H](OC(C)=O)[C@]5(CC)C=CCN6CC[C@]43[C@@H]65)C2)C1	MCF-7 cells	nM	300
CCc1cc2[nH]c3c(c2cc1C)CCN1C[C@H](C[C@@](O)(CC)C1)C[C@]3(C(=O)OC)c1cc2c(cc1OC)N(C=O)[C@H]1[C@@](O)(C(=O)OC)[C@H](OC(C)=O)[C@]3(CC)C=CCN4CC[C@]21[C@@H]43	MCF-7 cells	nM	50
CCCCC#Cc1ccc2[nH]c3c(c2c1)CCN1C[C@H](C[C@@](O)(CC)C1)C[C@]3(C(=O)OC)c1cc2c(cc1OC)N(C=O)[C@H]1[C@@](O)(C(=O)OC)[C@H](OC(C)=O)[C@]3(CC)C=CCN4CC[C@]21[C@@H]43	MCF-7 cells	nM	300
CCc1cc2[nH]c3c(c2cc1CC)CCN1C[C@H](C[C@@](O)(CC)C1)C[C@]3(C(=O)OC)c1cc2c(cc1OC)N(C=O)[C@H]1[C@@](O)(C(=O)OC)[C@H](OC(C)=O)[C@]3(CC)C=CCN4CC[C@]21[C@@H]43	MCF-7 cells	nM	30

Shift focus to the following entry.
Input line: Param item = CC[C@]1(O)C[C@H]2CN(CCc3c([nH]c4ccc(-c5cccc(OC)c5)cc34)[C@@](C(=O)OC)(c3cc4c(cc3OC)N(C)[C@H]3[C@@](O)(C(=O)OC)[C@H](OC(C)=O)[C@]5(CC)C=CCN6CC[C@]43[C@@H]65)C2)C1 ; retrieve measured GI50.
Output line: 500
